System: HEK-293T
Experiment: Multiplex assay against HEK293T
Type: toxicity, cell-based
Conditions: human, 12 h, 10 µM, compound concentration 10 uM, replicate 2
True if Population Mitochondria Different-Phenotype (%) is below 80%. False if not; exact matches included in False.

| molecule | class-name |
| --- | --- |
| CC(/C=C1\SC(=S)N(CCCC(=O)Nc2ccc(C(=O)O)c(O)c2)C1=O)=C\c1ccccc1 | True |
| Cc1onc(-c2ccccc2Cl)c1C(=O)N(C)c1ccc(Cl)cc1 | True |
| N#Cc1cc(F)cc(-c2nc(-c3ccc(F)cn3)no2)c1 | True |
| Cc1cnc(-c2cc(N3CCN(C(=O)CCS(C)(=O)=O)CC3)ncc2Cl)c(C)c1 | True |
| CC(C)COc1ccc(CNC(=O)N(Cc2ccc(F)cc2)C2CCN(C)CC2)cc1 [PIMAVANSERIN] | False |
| Cc1sc2c(c1C)C(c1ccc(Cl)cc1)=N[C@@H](CC(=O)NCCCCCCCCNC(=O)COc1cccc3c1C(=O)N(C1CCC(=O)NC1=O)C3=O)c1nnc(C)n1-2 (some centres undefined) | False |
